B2 bradykinin receptor (Homo sapiens): recorded AC50 for assorted compounds; further: assay procedure not described here
Sequence (P30411 whole entry): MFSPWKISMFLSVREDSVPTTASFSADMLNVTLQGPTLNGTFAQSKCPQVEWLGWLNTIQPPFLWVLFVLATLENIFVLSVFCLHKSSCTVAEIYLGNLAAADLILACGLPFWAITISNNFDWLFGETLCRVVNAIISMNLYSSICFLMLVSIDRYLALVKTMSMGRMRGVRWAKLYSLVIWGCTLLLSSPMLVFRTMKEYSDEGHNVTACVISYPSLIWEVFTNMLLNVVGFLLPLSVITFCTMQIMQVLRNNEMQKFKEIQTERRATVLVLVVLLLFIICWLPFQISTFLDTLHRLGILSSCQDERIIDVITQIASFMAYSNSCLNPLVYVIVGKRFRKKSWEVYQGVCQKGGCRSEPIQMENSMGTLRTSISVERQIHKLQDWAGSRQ

CC(C)OC(=O)CCC/C=C\C[C@@H]1[C@@H](CC[C@@H](O)CCc2ccccc2)[C@H](O)C[C@@H]1O: > 30 µM

Form field AC50 for item C#C[C@]1(O)CC[C@H]2[C@@H]3CCC4=Cc5oncc5C[C@]4(C)[C@H]3CC[C@@]21C on B2 bradykinin receptor (Homo sapiens): > 10 µM

Form field AC50 for item CN1C(=O)C(O)N=C(c2ccccc2Cl)c2cc(Cl)ccc21 (stereo not drawn) on B2 bradykinin receptor (Homo sapiens): > 30 µM

====

molecular target: Progesterone receptor (Homo sapiens, UniProt P06401); format: functional; further: assay procedure not described here
Sequence (P06401 whole entry): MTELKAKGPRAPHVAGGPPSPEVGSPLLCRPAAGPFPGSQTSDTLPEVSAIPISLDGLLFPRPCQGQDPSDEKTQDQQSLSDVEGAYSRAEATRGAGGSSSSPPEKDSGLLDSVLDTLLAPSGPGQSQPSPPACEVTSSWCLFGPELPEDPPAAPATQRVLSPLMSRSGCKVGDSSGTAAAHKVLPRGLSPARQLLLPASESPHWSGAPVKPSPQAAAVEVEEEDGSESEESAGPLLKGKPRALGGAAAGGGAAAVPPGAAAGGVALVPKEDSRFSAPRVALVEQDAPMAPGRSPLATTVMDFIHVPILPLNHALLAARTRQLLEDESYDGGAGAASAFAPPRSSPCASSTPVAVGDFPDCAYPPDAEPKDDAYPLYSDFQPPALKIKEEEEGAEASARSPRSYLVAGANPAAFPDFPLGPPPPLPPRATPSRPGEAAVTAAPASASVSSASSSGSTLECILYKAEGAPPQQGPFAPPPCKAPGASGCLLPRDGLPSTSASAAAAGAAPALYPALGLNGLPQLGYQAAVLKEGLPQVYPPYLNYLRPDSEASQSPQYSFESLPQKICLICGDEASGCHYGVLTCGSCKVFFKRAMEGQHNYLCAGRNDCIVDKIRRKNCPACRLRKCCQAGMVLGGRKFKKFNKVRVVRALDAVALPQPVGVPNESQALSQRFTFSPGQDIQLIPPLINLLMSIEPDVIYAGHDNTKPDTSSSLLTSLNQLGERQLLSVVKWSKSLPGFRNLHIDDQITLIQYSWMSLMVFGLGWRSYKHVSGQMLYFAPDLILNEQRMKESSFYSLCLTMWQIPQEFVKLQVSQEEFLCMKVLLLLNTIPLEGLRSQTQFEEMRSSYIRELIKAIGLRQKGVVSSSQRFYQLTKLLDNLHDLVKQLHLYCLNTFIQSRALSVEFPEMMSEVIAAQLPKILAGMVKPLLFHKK
AC50 listing for selected compounds.

Use the examples below as a reference point.
CC1(C)CCC(CN2CCN(c3ccc(C(=O)NS(=O)(=O)c4ccc(NCC5CCOCC5)c([N+](=O)[O-])c4)c(Oc4cnc5[nH]ccc5c4)c3)CC2)=C(c2ccc(Cl)cc2)C1: > 30 µM
CO[C@@H]1[C@@H](O[C@@H]2O[C@H](C)[C@@H](O[C@H]3C[C@@](C)(O)[C@@H](OC(=O)CC(C)C)[C@H](C)O3)[C@H](N(C)C)[C@H]2O)[C@@H](CC=O)C[C@@H](C)[C@@H](O)/C=C/C=C/C[C@@H](C)OC(=O)C[C@H]1OC(C)=O: > 10 µM
NC(=O)CN1CC(O)CC1=O (centres undefined): > 30 µM

Then there is this compound:
Form field AC50 for item CC(=O)O[C@H]1C[C@@H]2CC[C@@H]3[C@H](CC[C@@]4(C)[C@H]3C[C@H]([N+]3(C)CCCCC3)[C@@H]4OC(C)=O)[C@@]2(C)C[C@@H]1N1CCCCC1 on Progesterone receptor (Homo sapiens, UniProt P06401): > 30 µM
